Biological target: Cytochrome P450 1A2 (Homo sapiens) (UniProt P05177)
Sequence (P05177 whole entry, looked up): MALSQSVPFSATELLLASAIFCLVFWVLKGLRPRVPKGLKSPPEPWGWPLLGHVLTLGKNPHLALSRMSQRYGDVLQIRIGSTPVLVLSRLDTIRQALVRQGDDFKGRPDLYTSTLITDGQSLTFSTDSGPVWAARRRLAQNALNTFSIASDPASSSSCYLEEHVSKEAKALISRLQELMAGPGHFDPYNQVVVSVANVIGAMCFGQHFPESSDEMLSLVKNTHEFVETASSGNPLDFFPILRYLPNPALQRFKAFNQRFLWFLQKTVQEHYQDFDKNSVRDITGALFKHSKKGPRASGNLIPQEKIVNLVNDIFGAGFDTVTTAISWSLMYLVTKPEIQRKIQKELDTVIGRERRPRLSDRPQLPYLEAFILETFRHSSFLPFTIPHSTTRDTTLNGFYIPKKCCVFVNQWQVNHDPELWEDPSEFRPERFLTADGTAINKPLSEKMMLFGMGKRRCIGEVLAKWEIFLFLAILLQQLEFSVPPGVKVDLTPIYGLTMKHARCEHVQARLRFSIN
Assay: Cytochrome panel assay with activity outcomes
Details: recombinant CYP, pro-luciferin dealkylation, luminescence, p450-cyp1a2; series mostly up to 57.1 µM
Out of some 16,000 compounds screened, about 5,700 (36%) were called active. Not shown: some 24% with an inconclusive outcome. The call rests on the fitted dose curve; in most records, active means well fitted curve in the direction sought with a large enough effect; inconclusive means small, poorly fitted or top-dose-only effect, or effect the other way; inactive means no such curve, though single readings can be large or run the other way. Some of the results follow.
Log the outcome using a class from active, inactive

Illustrative cases are given below, each with its answer.
{"columns": ["SMILES STR", "LABEL CLASS"],
 "data": [
  ["C[C@@H]1O[C@H](O[C@@H]2C=C3CC[C@H]4[C@@H](CC[C@]5(C)[C@@H](c6ccc(=O)oc6)CC[C@]45O)[C@@]3(C)CC2)[C@@H](O)[C@H](O)[C@@H]1O", "inactive"],
  ["CCOC(=O)[C@@H]1[C@@H]2c3ccccc3-c3ccccc3[C@H]2C[C@H]1O", "active"],
  ["CC(=O)O[C@H]1CC[C@@]2(C)C(=CC[C@@H]3[C@H]2CC[C@]2(C)C(=O)CC[C@H]32)C1", "inactive"],
  ["O=C(Oc1ccccc1)N1CCC2(CCCN(Cc3ccccc3)C2)CC1", "inactive"],
  ["NCCCP(=O)(O)O", "inactive"],
  ["C[Se]C[C@@H](N)C(=O)O", "inactive"],
  ["CN1CCN(c2ncc3ncc(=O)n(C)c3n2)CC1", "active"],
  ["Cc1ccc(N2C(=O)/C(=C/c3ccc(CN(CCC#N)S(C)(=O)=O)o3)C(=O)NC2=S)cc1C", "inactive"]
]}

**Q:** What was the test verdict on CC(C)CN1CC2(CCN(C(=O)c3ccncc3)CC2)C1 ?
**A:** inactive

**Q:** Can you look up the reported call for CCCCCCCC/C=C\CCCCCCCC(N)=O for me?
**A:** active

====

Target: Cytochrome P450 1A2 (Homo sapiens) (UniProt P05177)
Experiment: Cytochrome panel assay with activity outcomes; on activity, negative = inhibition: on the % scale 0 is the no-effect control and ±100 the full control effect
Details: recombinant CYP, pro-luciferin dealkylation, luminescence, p450-cyp1a2; series mostly up to 57.1 µM
Screen size: about 16,000 compounds; about 5,700 (36%) were called active. Roughly 24% stayed inconclusive and do not appear here. The list shows a part of the results.
OBSERVED PROPERTY: activity, negative = inhibition

These recorded examples may help you get a feel for the data.
{"columns": ["SMILES STR", "TARGET UNDER TEST", "activity, negative = inhibition"],
 "data": [
  ["Oc1ccc([C@H](O)[C@@H]2CCCCN2)cc1O", "Cytochrome P450 1A2 (Homo sapiens) (UniProt P05177)", "-3.47% [at 11.4 µM] (inactive)"],
  ["CC[C@@]1(O)C(=O)OCc2c1cc1n(c2=O)Cc2cc3c(NC(=O)CN)cccc3nc2-1", "Cytochrome P450 1A2 (Homo sapiens) (UniProt P05177)", "-12.3% [at 2.29 µM] (inactive)"]
]}

Entry C[C@@]12CC[C@H]3[C@H](CC=C4C[C@@H](O)CC[C@@]43C)[C@@H]1CC[C@@H]2N(CCO)CCO ; activity, negative = inhibition = -4.6% [at 11.4 µM] (inactive)

response.value for CC1=C(CC[C@H](C)CO)O[C@@H]2C[C@@H]3[C@H]4CC[C@H]5C[C@@H](O)CC[C@]5(C)[C@@H]4CC(=O)[C@@]3(C)[C@@H]12 (field: activity, negative = inhibition) = -21.1% [at 2.29 µM] (inactive)
